Assign IC50 to each entry below.
test system: HCT-116; experiment: Cytotoxicity against human HCT116 cells after 3 days by MTT assay; type: functional, cell-based; conditions: Homo sapiens, HCT-116, 72 h
One number for each entry, in nM.

Recorded IC50, per entry:
COC1=C(C)C(=O)C2=C(C1=O)[C@@H]1[C@@H]3CC4=C(C(=O)C(OC)=C(C)C4=O)[C@H](COC(=O)C4=CCCCC4)N3[C@@H](C#N)[C@H](C2)N1C = 49
COC1=C(C)C(=O)C2=C(C1=O)[C@@H]1[C@@H]3CC4=C(C(=O)C(OC)=C(C)C4=O)[C@H](COC(=O)C4=CCCC4)N3[C@@H](C#N)[C@H](C2)N1C = 33
COC1=C(C)C(=O)C2=C(C1=O)[C@@H]1[C@@H]3CC4=C(C(=O)C(OC)=C(C)C4=O)[C@H](COC(=O)c4ccnc5ccccc45)N3[C@@H](C#N)[C@H](C2)N1C = 10
COC1=C(C)C(=O)C2=C(C1=O)[C@@H]1[C@@H]3CC4=C(C(=O)C(OC)=C(C)C4=O)[C@H](COC(=O)c4ccccc4OC)N3[C@@H](C#N)[C@H](C2)N1C = 34

Okay, now this compound:
So what IC50 did `COC1=C(C)C(=O)C2=C(C1=O)[C@@H]1[C@@H]3CC4=C(C(=O)C(OC)=C(C)C4=O)[C@H](COC(=O)C=C(C)C)N3[C@@H](C#N)[C@H](C2)N1C` get with HCT-116?
27
